test system: NCI-H292 lung cancer cells; assay: FDA drug screening, complete media vs cholesterol-free media without statin (TABLE 1); type: cell-based, human; details: Complete minus Cholesterol-free; greater than 0 enhanced anti-cancer activity, about 0 neutral, below 0 antagonists
Could you mark each record Criterion met if its Difference falls strictly under -0.7, and Criterion not met if it equals or exceeds it?

Problem: Identify whether the compound CCC1(c2ccccc2)C(=O)NCNC1=O [Primidone] records Difference below -0.7.
Solution: Criterion not met

Problem: Identify whether the compound CC(C)NNC(=O)c1ccncc1 [Iproniazid] records Difference below -0.7.
Solution: Criterion not met

Problem: Identify whether the compound OC[C@H]1O[C@@](CO)(O[C@H]2O[C@H](CO)[C@@H](O)[C@H](O)[C@H]2O)[C@@H](O)[C@@H]1O [Sucrose] records Difference below -0.7.
Solution: Criterion met

Problem: Identify whether the compound O=C1CCC(N2C(=O)c3ccccc3C2=O)C(=O)N1 (centres unmarked) [Thalidomide] records Difference below -0.7.
Solution: Criterion met

Problem: Identify whether the compound CC(C)(Oc1ccc(CCNC(=O)c2ccc(Cl)cc2)cc1)C(=O)O [Bezafibrate] records Difference below -0.7.
Solution: Criterion not met

Problem: Identify whether the compound CO/N=C(\C(=O)N[C@@H]1C(=O)N2C(C(=O)O)=C(COC(C)=O)CS[C@H]12)c1csc(N)n1 [Cefotaxime] records Difference below -0.7.
Solution: Criterion not met

---
Problem: Identify whether the compound CC[C@H]1OC(=O)[C@H](C)[C@@H](O[C@H]2C[C@@](C)(OC)[C@@H](O)[C@H](C)O2)[C@H](C)[C@@H](O[C@@H]2O[C@H](C)C[C@H](N(C)C)[C@H]2O)[C@](C)(O)C[C@@H](C)C(=O)[C@H](C)[C@@H](O)[C@]1(C)O [Erythromycin] records Difference below -0.7.
Solution: Criterion met

Problem: Identify whether the compound FC(F)(F)C(F)(F)C(F)(F)C(F)(F)C(F)(F)C(F)(F)C(F)(F)C(F)(F)Br [Perflubron] records Difference below -0.7.
Solution: Criterion not met

* * *

tested on: NCI-H292 lung cancer cells; assay: FDA drug screening, complete media vs cholesterol-free media with simvastatin (TABLE 2); format: cell-based, human; details: NCI-H292 cells, complete media; FDA drug library screen (TABLE 2)
Where a name gives a salt, the structure may show the parent alone.
Given measured Complete Media, output true (1) if it is greater than or equal to 0.7 and false (0) if not.

Problem: Test whether the compound Cc1nccn1CCC(C(N)=O)(c1ccccc1)c1ccccc1 [Imidafenacin] records Complete Media of 0.7 or higher.
Solution: true (1)

Problem: Test whether the compound CCOC(CN1CCN(CC(C)C(=O)c2ccccc2)CC1)c1ccccc1 (stereo not drawn) [Eprazinone (dihydrochloride)] records Complete Media of 0.7 or higher.
Solution: true (1)

Problem: Test whether the compound Nc1nc(O)c2ncn(COC(CO)CO)c2n1 [Ganciclovir] records Complete Media of 0.7 or higher.
Solution: true (1)

Problem: Test whether the compound CCN(C(=O)c1c(O)c2c(Cl)cccc2n(C)c1=O)c1ccccc1 [Laquinimod] records Complete Media of 0.7 or higher.
Solution: true (1)

Problem: Test whether the compound COC(=O)N[C@@H](C)CNc1nccc(-c2cn(C(C)C)nc2-c2cc(Cl)cc(NS(C)(=O)=O)c2F)n1 [Encorafenib] records Complete Media of 0.7 or higher.
Solution: false (0)

Problem: Test whether the compound COc1cc(/C=C/C(=O)O)ccc1O.[Na] [Ferulic acid (sodium)] records Complete Media of 0.7 or higher.
Solution: true (1)

Problem: Test whether the compound N#Cc1ccc2c(c1)N(CCCN1CCC(O)CC1)c1ccccc1S2 [Pericyazine] records Complete Media of 0.7 or higher.
Solution: true (1)

Problem: Test whether the compound CC(C)[C@]12O[C@H]1[C@@H]1O[C@@]13[C@@]1(C)CCC4=C(COC4=O)[C@@H]1C[C@@H]1O[C@@]13C2=O [Triptonide] records Complete Media of 0.7 or higher.
Solution: false (0)

---
Problem: Test whether the compound CC[C@H]1OC(=O)[C@H](C)C(=O)[C@H](C)[C@@H](O[C@@H]2O[C@H](C)C[C@H](N(C)C)[C@H]2O)[C@](C)(OC)C[C@@H](C)C(=O)[C@H](C)[C@H]2N(CCCCn3cnc(-c4cccnc4)c3)C(=O)O[C@]12C [Telithromycin] records Complete Media of 0.7 or higher.
Solution: true (1)

* * *

Listed compounds paired with reported Difference
test system: NCI-H292 lung cancer cells; experiment: FDA drug screening, complete media vs cholesterol-free media with simvastatin (TABLE 2); format: cell-based, human; conditions: complete media vs cholesterol-free media + simvastatin (0.04 μM); >0 enhanced anti-cancer activity, about 0 neutral, <0 antagonist
Counter-ions that a name gives are not always drawn.
Please state the value as a number alone, without comment.

Below: 3 compounds and their reported Difference.
Problem: Tell me reported Difference for C#C[C@]1(OC(C)=O)CC[C@H]2[C@@H]3CCC4=CC(=O)CC[C@@H]4[C@H]3CC[C@@]21C [Norethindrone acetate] , tested with NCI-H292 lung cancer cells.
Solution: −0.73

Problem: Tell me reported Difference for CN(C)c1cc(NC(=O)CNC(C)(C)C)c(O)c2c1C[C@H]1C[C@H]3[C@H](N(C)C)C(O)=C(C(N)=O)C(=O)[C@@]3(O)C(O)=C1C2=O [Tigecycline (tetramesylate)] , tested with NCI-H292 lung cancer cells.
Solution: −0.07

Problem: Tell me reported Difference for CC(C)NCC(O)c1ccc(O)c(O)c1 (stereo not shown) [Isoprenaline (hydrochloride)] , tested with NCI-H292 lung cancer cells.
Solution: −0.14

Read the next record carefully.
Problem: Tell me reported Difference for Cc1ccc(/C(=C\CN2CCCC2)c2ccccn2)cc1 [Triprolidine (hydrochloride monohydrate)] , tested with NCI-H292 lung cancer cells.
Solution: −0.61

* * *

tested on: NCI-H292 lung cancer cells; assay: FDA drug screening, complete media vs cholesterol-free media with simvastatin (TABLE 2); type: cell-based, human; conditions: NCI-H292 cells, drug in cholesterol-free media with simvastatin 0.04 μM
measured.endpoint: Cholesterol-free media + simvastatin (0.04 μM)
Please state the value as a number alone, without comment.

Problem: I would be grateful if you could share the reported Cholesterol-free media + simvastatin (0.04 μM) for CC1CNc2c(cccc2S(=O)(=O)N[C@@H](CCCNC(=N)N)C(=O)N2CC[C@@H](C)C[C@@H]2C(=O)O)C1 (some centres unmarked) [Argatroban (monohydrate)] .
Solution: 1.179

Problem: I would be grateful if you could share the reported Cholesterol-free media + simvastatin (0.04 μM) for O=[N+]([O-])c1cncn1CCN1CCOCC1 [Nimorazole] .
Solution: 1.022

Problem: I would be grateful if you could share the reported Cholesterol-free media + simvastatin (0.04 μM) for O=c1c(-c2ccc(O)cc2)coc2cc(O[C@@H]3O[C@H](CO)[C@@H](O)[C@H](O)[C@H]3O)ccc12 [Daidzin] .
Solution: 1.011

---
Problem: I would be grateful if you could share the reported Cholesterol-free media + simvastatin (0.04 μM) for C=C1CC[C@H](O)C/C1=C/C=C1\CCC[C@]2(C)[C@@H]([C@H](C)CCCC(C)(C)O)CC[C@@H]12 [Calcifediol] .
Solution: 1.216

Problem: I would be grateful if you could share the reported Cholesterol-free media + simvastatin (0.04 μM) for O=C1CCc2ccc(OCCCCN3CCN(c4cccc(Cl)c4Cl)CC3)cc2N1 [Aripiprazole] .
Solution: 1.264

Problem: I would be grateful if you could share the reported Cholesterol-free media + simvastatin (0.04 μM) for CCC[S+]([O-])c1ccc2[nH]c(NC(=O)OC)nc2c1 (centres unmarked) [Albendazole sulfoxide] .
Solution: 1.376

Problem: I would be grateful if you could share the reported Cholesterol-free media + simvastatin (0.04 μM) for Cc1ccc(C(C)C)cc2c(C)ccc1-2 [Guaiazulene] .
Solution: 1.916

Problem: I would be grateful if you could share the reported Cholesterol-free media + simvastatin (0.04 μM) for CC(=O)/N=c1/sc(S(N)(=O)=O)nn1C [Methazolamide] .
Solution: 1.441

* * *

test system: NCI-H292 lung cancer cells; assay: FDA drug screening, complete media vs cholesterol-free media with simvastatin (TABLE 2); type: cell-based, human; conditions: NCI-H292 cells, FDA drug library screen, complete media
measured.endpoint: Complete Media

Problem: I would be grateful if you could share the reported Complete Media for CCCCCCCCCC(=O)OCCN1CCN(CCCN2c3ccccc3Sc3ccc(C(F)(F)F)cc32)CC1 [Fluphenazine decanoate] .
Solution: 0.9759

---
Problem: I would be grateful if you could share the reported Complete Media for C[C@]1(Cn2ccnn2)[C@H](C(=O)O)N2C(=O)C[C@H]2S1(=O)=O [Tazobactam] .
Solution: 1.299

Problem: I would be grateful if you could share the reported Complete Media for Cl.NCC(=O)CCC(=O)O [5-Aminolevulinic acid (hydrochloride)] .
Solution: 1.01

Problem: I would be grateful if you could share the reported Complete Media for CN1CCc2c(c3ccccc3n2Cc2ccccc2)C1 [Mebhydrolin] .
Solution: 0.6781
